meta.source: patent US20130296363A1

# Lookup of reported Kd keyed by entry
# TARGET_DESC: TYK2 (Homo sapiens, UniProt P29597)
# Sequence (P29597 whole entry): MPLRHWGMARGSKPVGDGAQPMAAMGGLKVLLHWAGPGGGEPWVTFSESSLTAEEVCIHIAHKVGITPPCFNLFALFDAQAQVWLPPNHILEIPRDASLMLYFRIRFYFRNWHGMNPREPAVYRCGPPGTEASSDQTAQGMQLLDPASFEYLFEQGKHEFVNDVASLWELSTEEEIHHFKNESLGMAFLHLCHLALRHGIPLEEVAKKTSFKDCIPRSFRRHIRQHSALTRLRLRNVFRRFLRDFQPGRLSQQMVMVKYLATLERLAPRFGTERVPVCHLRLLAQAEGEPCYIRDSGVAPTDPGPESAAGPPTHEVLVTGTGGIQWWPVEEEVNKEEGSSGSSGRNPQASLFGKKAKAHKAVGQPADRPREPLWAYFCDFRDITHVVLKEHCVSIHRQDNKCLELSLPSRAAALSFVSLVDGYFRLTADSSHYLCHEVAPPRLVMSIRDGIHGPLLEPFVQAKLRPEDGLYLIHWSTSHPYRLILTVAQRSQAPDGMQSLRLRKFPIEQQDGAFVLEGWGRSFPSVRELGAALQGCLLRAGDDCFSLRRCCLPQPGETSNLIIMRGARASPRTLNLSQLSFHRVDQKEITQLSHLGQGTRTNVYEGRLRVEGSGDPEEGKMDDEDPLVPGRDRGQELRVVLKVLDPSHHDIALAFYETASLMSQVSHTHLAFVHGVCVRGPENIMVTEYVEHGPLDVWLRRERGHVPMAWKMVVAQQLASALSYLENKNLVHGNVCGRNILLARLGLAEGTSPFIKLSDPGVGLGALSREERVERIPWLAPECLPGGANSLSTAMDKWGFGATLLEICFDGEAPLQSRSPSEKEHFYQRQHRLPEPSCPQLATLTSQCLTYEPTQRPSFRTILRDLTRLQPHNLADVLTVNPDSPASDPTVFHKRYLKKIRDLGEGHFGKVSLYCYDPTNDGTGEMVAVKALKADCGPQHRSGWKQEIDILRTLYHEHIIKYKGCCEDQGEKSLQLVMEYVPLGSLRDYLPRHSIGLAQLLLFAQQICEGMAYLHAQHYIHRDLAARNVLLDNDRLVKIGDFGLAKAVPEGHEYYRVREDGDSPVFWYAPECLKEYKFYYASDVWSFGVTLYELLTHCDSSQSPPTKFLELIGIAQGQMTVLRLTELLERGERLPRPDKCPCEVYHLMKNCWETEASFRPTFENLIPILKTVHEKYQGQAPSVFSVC

COMPOUND | TARGET_DESC | Kd
Cc1cc(Nc2nc(C(O)c3ccc(F)cc3)cc3ccccc23)n[nH]1 (racemic) | TYK2 (Homo sapiens, UniProt P29597) | ≤ 10 nM
Cc1cc(Nc2nc(S(=O)(=O)c3ccc(F)cc3)cc3ccccc23)n[nH]1 | TYK2 (Homo sapiens, UniProt P29597) | ≤ 10 nM
Cc1cc(Nc2nc(S(=O)(=O)c3ccc(F)cc3)cc3c(Br)cccc23)n[nH]1 | TYK2 (Homo sapiens, UniProt P29597) | ≤ 10 nM
Cc1cnc(Nc2nc([S+]([O-])c3ccc(F)cc3)cc3ccccc23)s1 (stereo not shown) | TYK2 (Homo sapiens, UniProt P29597) | ≤ 10 nM
[2H]C([2H])([2H])n1cnc(Nc2nc(S(=O)(=O)c3ccc(F)cc3)cc3ccccc23)c1 | TYK2 (Homo sapiens, UniProt P29597) | ≤ 10 nM
COc1cc(Nc2nc(S(=O)(=O)c3ccc(F)cc3)cc3ccccc23)n[nH]1 | TYK2 (Homo sapiens, UniProt P29597) | ≤ 10 nM
O=S(=O)(c1ccc(F)cc1)c1cc2ccccc2c(Nc2cc(O)[nH]n2)n1 | TYK2 (Homo sapiens, UniProt P29597) | 10 to 100 nM

* * *

# TARGET_DESC: JAK2 (Homo sapiens)
# Sequence (O60674 whole entry): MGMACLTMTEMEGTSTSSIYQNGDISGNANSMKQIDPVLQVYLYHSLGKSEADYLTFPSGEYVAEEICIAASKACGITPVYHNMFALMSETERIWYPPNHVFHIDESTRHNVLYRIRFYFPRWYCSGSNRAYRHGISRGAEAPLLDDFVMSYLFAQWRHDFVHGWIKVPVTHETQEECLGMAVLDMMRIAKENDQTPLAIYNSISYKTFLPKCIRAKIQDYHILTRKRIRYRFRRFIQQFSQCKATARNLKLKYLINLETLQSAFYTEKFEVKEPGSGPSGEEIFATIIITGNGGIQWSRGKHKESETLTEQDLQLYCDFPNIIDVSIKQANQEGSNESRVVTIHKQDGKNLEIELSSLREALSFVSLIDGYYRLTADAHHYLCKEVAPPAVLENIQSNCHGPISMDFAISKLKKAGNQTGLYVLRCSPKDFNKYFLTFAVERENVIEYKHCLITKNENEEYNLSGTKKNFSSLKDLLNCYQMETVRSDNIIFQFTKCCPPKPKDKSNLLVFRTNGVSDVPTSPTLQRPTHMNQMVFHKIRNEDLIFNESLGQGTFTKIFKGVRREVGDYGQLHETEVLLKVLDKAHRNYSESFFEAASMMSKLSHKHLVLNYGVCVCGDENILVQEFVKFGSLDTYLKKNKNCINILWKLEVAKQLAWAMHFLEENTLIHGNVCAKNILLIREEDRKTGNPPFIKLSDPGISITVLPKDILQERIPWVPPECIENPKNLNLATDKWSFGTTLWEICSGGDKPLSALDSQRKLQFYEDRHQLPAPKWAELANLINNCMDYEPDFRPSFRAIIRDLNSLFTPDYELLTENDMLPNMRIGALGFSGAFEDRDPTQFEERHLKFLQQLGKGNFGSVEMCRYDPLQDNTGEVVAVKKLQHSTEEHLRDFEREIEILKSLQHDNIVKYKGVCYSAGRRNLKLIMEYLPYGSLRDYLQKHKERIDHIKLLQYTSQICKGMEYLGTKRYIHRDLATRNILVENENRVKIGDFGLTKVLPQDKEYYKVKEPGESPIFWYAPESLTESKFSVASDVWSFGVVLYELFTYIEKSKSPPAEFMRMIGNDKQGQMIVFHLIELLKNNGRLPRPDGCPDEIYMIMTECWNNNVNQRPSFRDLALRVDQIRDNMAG
pKd: −log10 of the molar value.
OBSERVATION_TYPE: pKd

COMPOUND | TARGET_DESC | RECORDED_MEASUREMENT
Cc1cc(Nc2nc([S+]([O-])c3ccc(F)cc3)cc3ccccc23)n[nH]1 (centres unmarked) | JAK2 (Homo sapiens) | ≥ 8.30
Cc1cc(Nc2nc(S(=O)(=O)c3ccc(F)cc3)cc3c(Br)cccc23)n[nH]1 | JAK2 (Homo sapiens) | ≥ 8.30
Cc1coc(Nc2nc([S+]([O-])c3ccc(F)cc3)cc3ccccc23)n1 (racemic) | JAK2 (Homo sapiens) | < 7.30
Cc1cc(Nc2nc(C(O)c3ccc(F)cc3)cc3ccccc23)n[nH]1 (racemic) | JAK2 (Homo sapiens) | ≥ 8.30
O=S(=O)(c1ccc(F)cc1)c1cc2ccccc2c(Nc2ncco2)n1 | JAK2 (Homo sapiens) | < 7.30
O=S(=O)(c1ccc(F)cc1)c1cc2ccccc2c(Nc2cc(O)[nH]n2)n1 | JAK2 (Homo sapiens) | 7.30 to 8.30
[2H]C([2H])([2H])n1cnc(Nc2nc(S(=O)(=O)c3ccc(F)cc3)cc3ccccc23)c1 | JAK2 (Homo sapiens) | ≥ 8.30
Cc1cc(Nc2nc(S(=O)(=O)c3ccc(F)cc3)cc3ccccc23)n[nH]1 | JAK2 (Homo sapiens) | ≥ 8.30
Cc1cnc(Nc2nc([S+]([O-])c3ccc(F)cc3)cc3ccccc23)s1 (centres unmarked) | JAK2 (Homo sapiens) | ≥ 8.30
Cc1cc(Nc2nc(C(=O)c3ccc(F)cc3)cc3ccccc23)n[nH]1 | JAK2 (Homo sapiens) | ≥ 8.30
CCn1cnc(Nc2nc(S(=O)(=O)c3ccc(F)cc3)cc3ccccc23)c1 | JAK2 (Homo sapiens) | ≥ 8.30
COc1cc(Nc2nc(S(=O)(=O)c3ccc(F)cc3)cc3ccccc23)n[nH]1 | JAK2 (Homo sapiens) | ≥ 8.30
Cn1cnc(Nc2nc(S(=O)(=O)c3ccc(F)cc3)cc3ccccc23)c1 | JAK2 (Homo sapiens) | ≥ 8.30
Cc1cnc(Nc2nc(S(=O)(=O)c3ccc(F)cc3)cc3ccccc23)s1 | JAK2 (Homo sapiens) | ≥ 8.30
